- system tested: T1, SHANK1, Q9Y566
- T1 sequence (Q9Y566 658-767, limits assumed, looked up): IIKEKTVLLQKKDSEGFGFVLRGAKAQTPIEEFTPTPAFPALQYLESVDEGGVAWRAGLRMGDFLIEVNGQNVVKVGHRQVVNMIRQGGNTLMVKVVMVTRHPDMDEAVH
- procedure summary: holdup assay
- Set-up: key: below the threshold = too weak to quantify, mostly under pKd 3.1 to 4
- condition details: plain residues with an end cap or a label only (N-terminal biotin on a linker: ado-ado)
result type: pKd

Sample answers from the record:
>>> print(df.to_string())
                        binder               result
0  THHRKIHTRV [ZNF599, Q96NL3]                 4.01
1    DSEEELPTRL [GRK6, P43250]                 4.71
2   QLGSPTADLA [SIPA1, Q96FS4]  below the threshold
3   QRYPGNQTTC [CCL24, O00175]  below the threshold
4  NSTHNLKDYV [CLDN20, P56880]  below the threshold

// lookup pKd for SSSVNVSSNL [CXCR1, P25024] 3.94

// lookup pKd for PGKKPEDSRV [SLCO2B1, O94956] below the threshold

// lookup pKd for NTALVESEDL [PALLS, Q8WX93;Q8WX93-1] below the threshold

// lookup pKd for SAGADSETHC [SLCO1B1, Q9Y6L6] below the threshold

// lookup pKd for IKLETKKTKL [SLC15A2, Q16348] 4.85

The reported measurements were obtained from paper PMC9482650.
